# Tested on: female BALB/C mice
# protocol: Live imaging in mice: protein expression of Fluc-mRNA delivered by LNP formulations
# Type: in vivo
# conditionSummary: 48 h; comparator HHMA
Hi, to clarify the labels: MET covers average radiation intensity, times that of HHMA from 20 times upward, NOT MET covers anything below 20 times.

Observe how each entry below is paired with its result.
> print(dat)
                                 chemsmiles        testedtarget  labelvalue
1  CCCCCCCCC(CCCCCCCC)OC(=O)CCCCCN(CCCCCC(=O)OC(CCCCCCCC)CCCCCCCC)C[C@H](O)CN(CCO)CCO  female BALB/C mice     NOT MET
2  CCCCCCCCCCCOC(=O)CCCCCN(CCCC(=O)OCCCC(CCCCCCCCCC)CCCCCCCCCC)C[C@H](O)CN(CC)CCO  female BALB/C mice         MET
3  CCCCCCCCC(CCCCCCCC)COC(=O)CCCCCN(CCCCCC(=O)OCC(CCCCCCCC)CCCCCCCC)C[C@H](O)CN(CC)CCO  female BALB/C mice         MET
4  CCCCCCCCC(CCCCCCCC)COC(=O)CCCCCN(CCCCCC(=O)OCC(CCCCCCCC)CCCCCCCC)C[C@H](O)CN(C)CCO  female BALB/C mice         MET

Now for a further compound.
Task item: State whether the measured average radiation intensity, times that of HHMA reaches 20 times, counting equality as reaching it, for "CCCCCCC(CCCCCC)CCOC(=O)CCCCCCN(CCCCCCC(=O)OCCC(CCCCCC)CCCCCC)C[C@H](O)CN(CCO)CCO"
Reply: MET

###

# System: 293T cells
# protocol: Fluorescent detection of Fluc-mRNA (cell transfection efficiency of LNP formulations)
# Format: cell-based
# conditionSummary: LNP formulation of Fluc-mRNA, 96-well plate, 24 hours
// reported Relative light unit (RLU) for each item listed
Give a bare numeral; the unit RLU is implied.

Reference set (3 entries):
> print(dat)
                                   compound  endpointvalue
1  CCCCCCC(CCCCCC)CCOC(=O)CCCCCN(CCCCCC(=O)OCCC(CCCCCC)CCCCCC)C[C@H](O)CN(CCO)CCO        3605054
2  CCCCCCCCCCCOC(=O)CCCCCN(CCCC(=O)OCCCC(CCCCCCCCCC)CCCCCCCCCC)C[C@H](O)CN(CC)CCO       25797040
3  CCCCCCC(CCCCCC)CCOC(=O)CCCCCCN(CCCCCCC(=O)OCCC(CCCCCC)CCCCCC)C[C@H](O)CN(CCO)CCO       24467760

Then this compound:
Task item: Please give the measured Relative light unit (RLU) for this compound: CCCCCCCCCCCCC(O)CN(C)CCCCCC(=O)OCC(CCCCCC)CCCCCCCC (stereo not shown) [HHMA, reference compound]
Reply: 2006110

###

# Test system: 293T cells
# protocol: Fluorescent detection of Fluc-mRNA (cell transfection efficiency of LNP formulations)
# Assay type: cell-based
# conditionSummary: RLU of YK-310 / RLU of the lipid of the line
Measured Multiples (YK-310) by item
Give your answer as a number; write no unit.

Examples with their reported Multiples (YK-310) follow.
> print(dat)
                                   compound      outcomemeasure  endpointvalue
1  CCCCCCCCCCOC(=O)CCCN(CCCCCC(=O)OCC(CCCCCCCC)CCCCCCCC)C[C@H](O)CN(C)CCO  Multiples (YK-310)          30.62
2  CCCCCCCCC(CCCCCCCC)COC(=O)CCCCCN(CCCCCC(=O)OCC(CCCCCCCC)CCCCCCCC)C[C@H](O)CN(CC)CCO  Multiples (YK-310)           1.28
3  CCCCCCCCC(CCCCCCCC)OC(=O)CCCCCCCN(CCCCCCCC(=O)OC(CCCCCCCC)CCCCCCCC)C[C@H](O)CN(CCO)CCO  Multiples (YK-310)           9.54
4  CCCCCCCCC(CCCCCCCC)OC(=O)CCCCCCCN(CCO)CCCCCCCC(=O)OCCC(CCCCCC)CCCCCC [Compound 21, reference compound]  Multiples (YK-310)          18.01
5  CCCCCCCCCCCOC(=O)CCCCCN(CCCC(=O)OCCCC(CCCCCCCCCC)CCCCCCCCCC)C[C@H](O)CN(C)CCO  Multiples (YK-310)          41.19
6  CCCCCCCCCCCOC(=O)CCCCCN(CCO)CCCCCCCC(=O)OC(CCCCCCCC)CCCCCCCC [SM-102, reference compound]  Multiples (YK-310)          16.08

Next item in the queue.
Task item: Given the entry "CCCCCCCCCCC(CCCCCCCCCC)CCCOC(=O)CCCN(CCCC(=O)OCCCC(CCCCCCCCCC)CCCCCCCCCC)C[C@H](O)CN(CC)CCO" , what Multiples (YK-310) was observed with 293T cells?
Reply: 16.25
